# Test system: 201T
# Assay Protocol: relative viability (nuclei count vs DMSO), 5 days (fraction); higher = more cells survive
# Run Conditions: first compound 0.8 µM
Quick reference: relative viability of the listed items.
I only need the number, thanks.

Record excerpt, results attached:
[
  {
    "Compound": "C=C1C(=O)O[C@@H](CCCCCCCC)[C@@H]1C(=O)O [C-75] + O=C(CCCCCCC(=O)Nc1ccccc1)NO [Vorinostat] (partner 1 µM)",
    "Target Desc": "201T",
    "relative viability": 0.91
  },
  {
    "Compound": "C=C1C(=O)O[C@@H](CCCCCCCC)[C@@H]1C(=O)O [C-75] + CC(C)C[C@H](NC(=O)[C@H](Cc1ccccc1)NC(=O)c1cnccn1)B(O)O [Bortezomib] (partner 0.002 µM)",
    "Target Desc": "201T",
    "relative viability": 1.08
  },
  {
    "Compound": "Oc1nc(-c2ccc(C(F)(F)F)cc2)nc2c1CSCC2 [XAV939] + C[C@@H](Oc1cc(-c2cnn(C3CCNCC3)c2)cnc1N)c1c(Cl)ccc(F)c1Cl [Crizotinib] (partner 1 µM)",
    "Target Desc": "201T",
    "relative viability": 0.94
  }
]

Input line: Quote relative viability reported for Oc1nc(-c2ccc(C(F)(F)F)cc2)nc2c1CSCC2 [XAV939] + N=C(N)NC(=N)NCCc1ccccc1 [Phenformin] (partner 250 µM) please.
Output line: 0.364

Input line: Tell me relative viability reported for Oc1nc(-c2ccc(C(F)(F)F)cc2)nc2c1CSCC2 [XAV939] + Nc1nc2[nH]cc(CCc3ccc(C(=O)N[C@@H](CCC(=O)O)C(=O)O)cc3)c2c(=O)[nH]1 [Pemetrexed] (partner 0.2 µM)
Output line: 0.374

* * *

# System: SW 900
# Assay Protocol: relative viability (nuclei count vs DMSO), 5 days (fraction); higher = more cells survive
# Run Conditions: first compound 0.253 µM
Quick reference for relative viability among some compounds
Response field accepts a number only; no unit should be typed.

Input line: Note down relative viability recorded for Oc1nc(-c2ccc(C(F)(F)F)cc2)nc2c1CSCC2 [XAV939] + Cc1cc(Nc2cc(N3CCN(C)CC3)nc(Sc3ccc(NC(=O)C4CC4)cc3)n2)n[nH]1 [Tozasertib] (partner 0.1 µM)
Output line: 0.549

Input line: Input C=C1C(=O)O[C@@H](CCCCCCCC)[C@@H]1C(=O)O [C-75] + COc1cccc2cc(-c3nc([C@H]4CC[C@H](C(=O)O)CC4)n4ncnc(N)c34)[nH]c12 [OSI-027] (partner 0.5 µM) , output reported relative viability.
Output line: 0.842

Input line: // fetch relative viability given entry C=C1C(=O)O[C@@H](CCCCCCCC)[C@@H]1C(=O)O [C-75] + Cc1cc(Nc2cc(N3CCN(C)CC3)nc(Sc3ccc(NC(=O)C4CC4)cc3)n2)n[nH]1 [Tozasertib] (partner 0.1 µM)
Output line: 0.919

* * *

# Test system: LCLC-97TM1
# Assay Protocol: relative viability (nuclei count vs DMSO), 5 days (fraction); higher = more cells survive
# Run Conditions: first compound 1.265 µM
Rule: measured relative viability below 0.2 gets 1 (yes); anything equal to or greater than 0.2 gets 0 (no).

Input line: # TODO verify relative viability < 0.2 strictly for this molecule: O=C(O)c1ccc(-c2c[nH]c3ncc(-c4ccccc4)cc23)cc1C1CCCC1 + O=C(c1cc(Cc2n[nH]c(=O)c3ccccc23)ccc1F)N1CCN(C(=O)C2CC2)CC1 [Olaparib] (partner 8 µM)
Output line: 0 (no)

Input line: Would you kindly verify if relative viability of O=C(O)c1ccc(-c2c[nH]c3ncc(-c4ccccc4)cc23)cc1C1CCCC1 + CC(=O)c1c(C)c2cnc(Nc3ccc(N4CCNCC4)cn3)nc2n(C2CCCC2)c1=O [Palbociclib] (partner 0.5 µM) is strictly less than 0.2?
Output line: 0 (no)
